Test system: HeLa cells
Assay: MMS potentiation assay (CellTiter Glo viability)
Type: cell-based, human
Set-up: key: N.A., no activity observed; P, positive; I, inconclusive; N.T., not tested
Conditions: potentiation of the genotoxic effect of methylmethane sulfonate
ASSAY_READOUT: MMS Assay

1. CCOC(=O)c1cc(-c2ccc(/C=C3/C(=O)N(c4ccc(C(=O)O)cc4)N=C3C)o2)ccc1Cl : P
2. O=C1NC(=O)N(Cc2ccco2)C(=O)C1=CC=Cc1ccco1 : P
3. CC(C)C(=O)NC(C)C(c1cccs1)N1CCN(c2ccccc2)CC1 (stereo not drawn) : I
4. CC(=O)Nc1sc2c(c1-c1nc3ccccc3s1)CCN(C(C)C)C2 : P
5. CC(C(=O)O)N1C(=O)/C(=C/C=C/c2ccco2)SC1=S (stereo not drawn) : I

Problem: Any idea what its MMS Assay is? The compound is CCc1cc(CNC(=O)c2ccc(OC3CCN(CCc4ccccc4)CC3)cc2)on1
Result: P

Problem: What about O=C1COc2ccc(C(=O)COC(=O)/C=C/c3ccc(Br)o3)cc2N1 ?
Result: I

Problem: What about COc1ccc2c(c1)c(=O)oc1cc(OCC(=O)N3CCC(C)CC3)ccc12 ?
Result: I

Problem: What about N#C/C(=C\c1ccc(O)c(O)c1)C(=O)Nc1cccc2ncccc12 ?
Result: I

* * *

Biological target: APE1 (Homo sapiens, UniProt P27695)
Construct: made in house
Sequence (P27695 whole entry): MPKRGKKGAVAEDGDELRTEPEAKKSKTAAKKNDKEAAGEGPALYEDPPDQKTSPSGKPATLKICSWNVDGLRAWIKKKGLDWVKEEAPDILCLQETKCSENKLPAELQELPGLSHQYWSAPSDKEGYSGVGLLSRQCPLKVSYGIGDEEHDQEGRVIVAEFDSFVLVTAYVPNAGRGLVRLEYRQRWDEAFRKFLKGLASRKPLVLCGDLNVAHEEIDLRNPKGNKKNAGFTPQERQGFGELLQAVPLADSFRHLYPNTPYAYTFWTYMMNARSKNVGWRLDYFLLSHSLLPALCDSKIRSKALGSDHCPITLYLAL
Test: Fluorescence polarization (FP) displacement assay of APE1 binding to AP-DNA probe;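 further: TAMRA 5′-labeled duplex DNA with THF abasic site (5 nM) and APE1 (20 nM), Mg2+-free buffer, 15 min at room temperature, inhibition seen as lowered polarization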
Settings: read-out: FP IC50
pIC50: −log10 of the molar value.
Attribute: pIC50

Known results for compounds:
1. Cc1c(C(=O)OCC2CCCO2)[nH]c2c1C(=O)CC(c1ccco1)C2 (stereo not shown) : 4.80
2. N#Cc1ccccc1CN1C(=O)S/C(=C/c2cccn2-c2cccc(C(=O)O)c2)C1=O : < 4.24

Problem: Any idea what its pIC50 is? The compound is CC1(C)CC2CC(C)(CN2C(=O)COC(=O)c2ccc(O)cc2O)C1 (stereo not shown)
Result: < 4.24

Problem: What about Cc1c2c(c(O)c3c(O)cccc13)C(=O)O[C@H]2C1C(N(C)C)C(O)=C(C(N)=O)C(=O)[C@H]1O (stereo partly shown) ?
Result: 5.66

Problem: What about O=C(N/N=C/c1cccn1-c1cccc(C(=O)O)c1)Nc1ccccc1 ?
Result: < 4.24

Problem: What about COc1ccccc1N(CC(=O)NCc1ccco1)S(=O)(=O)c1ccc(C)cc1 ?
Result: < 4.24

Problem: What about O=C(NC1CC1)C1CCN(S(=O)(=O)c2cc([N+](=O)[O-])ccc2Cl)CC1 ?
Result: < 4.24

* * *

Target: APE1 (Homo sapiens, UniProt P27695)
Construct: made in house
Assay: Fluorogenic kinetic qHTS APE1 incision assay (primary screen and retest of cherrypicked samples)
Format: biochemical
Conditions: initial quantitative high-throughput screen; read-out: APE1 qHTS IC50
ASSAY_READOUT: pIC50
Just so you know, pIC50 here is -log10 of the concentration in molar units; reply with that number alone.

1. Cn1cnnc1SCC(=O)Nc1ncc([N+](=O)[O-])s1 : 5.08
2. O=C(C[C@@H]1C/C=C\C[C@H](NC(=O)OCC2c3ccccc3-c3ccccc32)C(=O)OC[C@@H]2CCCN2C1=O)NCCO : 5.02
3. CC1CCc2c(sc(NC(=O)/C=C/c3cccs3)c2C(=O)O)C1 (centres unmarked) : 4.92
4. O=C(CSc1nc2sc3c(c2c(=O)n1-c1ccccc1)CCCC3)NN=Cc1ccccc1C(=O)O : 4.97
5. O=C(C[C@@H]1C/C=C\C[C@H](Cc2ccc(F)cc2)C(=O)OC[C@@H](Cc2c[nH]c3ccccc23)NC1=O)NCCO : 4.92

Problem: Any idea what its pIC50 is? The compound is O=C(COC(=O)Cc1cccc(C(F)(F)F)c1)NCc1ccco1
Result: 4.97

Problem: What about NS(=O)(=O)c1ccc(NC(=O)CSc2nnc(NC3CC3)s2)cc1 ?
Result: 4.97

Problem: What about Cc1ccc(S(=O)(=O)Nc2csc(C)c2C(=O)O)cc1 ?
Result: 4.95

* * *

Target: APE1 (Homo sapiens, UniProt P27695)
Construct: made in house
Test: Fluorogenic kinetic qHTS APE1 incision assay (primary screen and retest of cherrypicked samples)
Type: biochemical
Details: retest of cherrypicked sample; read-out: APE1 Retest IC50
Attribute: IC50
Report the value in µM with no unit label.

Known results for molecules:
1) O=C1CCCC(O)=C1N=Nc1ccc(C(=O)O)cc1 [MLS000759943] : 10
2) O=C(O)c1ccc(-c2ccc(/C=c3/sc4nc5ccccc5n4c3=O)o2)cc1Cl [MLS001196440] : 7.3
3) CC(=O)c1ccccc1NS(=O)(=O)c1cccc2nsnc12 [MLS001008046] : 8.1
4) CN(CC(=O)Nc1cccc(F)c1)C(=O)c1cccc(-n2cccc2)c1 [MLS001071694] : 5.1
5) O=C1CC(=O)N(Cc2ccco2)C(=S)N1 [MLS000535286] : 12.6
6) O=C(O)C[C@@H]1C(=O)O[C@@H]2C(COC(=O)c3cc(O)c(O)c(O)c3)O[C@@H](OC(=O)c3cc(O)c(O)c(O)c3)[C@@H](OC(=O)c3cc(O)c(O)c4c3[C@H]1[C@H](O)C(=O)O4)[C@H]2OC(=O)c1cc(O)c(O)c(O)c1 (some centres unmarked) [MLS000697665] : 0.01
7) Cc1sc2ncnc(SCC(=O)Nc3ncccc3O)c2c1C [MLS002181609] : 10.2
8) COc1ccc2c(c1)c(=O)oc1cc(OCC(=O)N3CCC(C)CC3)ccc12 [MLS000088142] : 5

Please find the next molecule below.
Problem: Any idea what its IC50 is? The molecule is COc1ccc(S(=O)(=O)NCCC(=O)NC2CCCCC2C)cc1[N+](=O)[O-] (centres unmarked) [MLS002251710]
Result: 16.2

* * *

Molecular target: APE1 (Homo sapiens, UniProt P27695)
Construct: made in house
Assay: Fluorogenic kinetic qHTS APE1 incision assay (primary screen and retest of cherrypicked samples);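 further: purified APE1 cleaving a fluorophore/dark-quencher labelled 17-mer duplex DNA bearing a tetrahydrofuran AP site, fluorescence rise followed kinetically over the first 2 min, inhibition normalized to controls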
Assay type: biochemical
Conditions: initial quantitative high-throughput screen; read-out: APE1 qHTS IC50
Just a reminder that ties go to not satisfied: only IC50 strictly below 9 µM counts as satisfied.

Recorded results for 5 compounds are shown here.
1. Nc1c(/C=C2/C=CC(=O)C(O)=C2)c(=O)nc2sc(CC(=O)N3CCCC3)nn12 [MLS001139292] : not satisfied
2. COc1c(-c2ccc(O)cc2)oc2cc(O)cc(O)c2c1=O [MLS000877008] : satisfied
3. Cc1ccc(NC(=O)C(c2ccccc2)N2CCN(CC(=O)N3CCOCC3)CC2)cc1Cl (stereo not drawn) [MLS002162303] : not satisfied
4. COc1ccc(NC(=O)CN(C)C(=O)c2cccc(-n3cccc3)c2)cc1 [MLS001097639] : satisfied
5. COc1ccccc1N(CC(=O)NCc1ccco1)S(=O)(=O)c1ccc(C)cc1 [MLS001219746] : not satisfied

Problem: For the compound Cc1cccc(NC(=O)CNC(=O)c2cccc(-n3cccc3)c2)c1C [MLS001141795] , is IC50 under 9 µM?
Result: satisfied

Problem: What about Cc1ccc(NC(=O)CN2C(=O)S/C(=C/c3ccc(-c4cc(C(=O)O)ccc4C)o3)C2=O)cc1C [MLS000530771] ?
Result: not satisfied

Problem: What about O=C(O)C1Nc2ccc(Br)cc2C2C=CCC12 (stereo not drawn) [MLS001209038] ?
Result: not satisfied

Problem: What about CC(=O)Oc1cc2cccc(OC(C)=O)c(=O)c2c(OC(C)=O)c1OC(C)=O [MLS001049122] ?
Result: satisfied

Problem: What about COCCN(CC(=O)Nc1cccc(C)c1C)C(=O)c1cc2c(s1)CCC2 [MLS002170765] ?
Result: not satisfied

Problem: What about Nc1c(/C=C2/C=CC(=O)C(O)=C2)c(=O)nc2sc(CC(=O)N3CCCCC3)nn12 [MLS001139223] ?
Result: satisfied

Problem: What about O=C(N/N=C/c1cccn1-c1cccc(C(=O)O)c1)Nc1ccccc1 [MLS000588622] ?
Result: satisfied

Problem: What about Cc1ccc(NC(=O)CN(C)C(=O)c2cc(-c3ccco3)nc3ccccc23)cc1 [MLS001099510] ?
Result: satisfied

Problem: What about O=C(NN1C(=O)/C(=C/C=C/c2ccco2)SC1=S)c1ccncc1 [MLS000762704] ?
Result: satisfied

Problem: What about O=C1C=C(c2ccc3cc[nH]c3c2)C[C@@H](c2ccc3c(c2)OCO3)C1 [MLS001060910] ?
Result: not satisfied

Problem: What about Cc1cccn2c(=O)c3cc(C(=O)NCc4ccco4)c(=N)n(C4CCCCC4)c3nc12 [MLS001217741] ?
Result: not satisfied

Problem: What about C[C@@]1(C(=O)O)NCCc2cc(O)c(O)cc21 [NCGC00024700] ?
Result: satisfied
